# MEASUREMENT TARGET: TLR8 (Homo sapiens, UniProt Q9NR97)
# Sequence (Q9NR97 27-1041): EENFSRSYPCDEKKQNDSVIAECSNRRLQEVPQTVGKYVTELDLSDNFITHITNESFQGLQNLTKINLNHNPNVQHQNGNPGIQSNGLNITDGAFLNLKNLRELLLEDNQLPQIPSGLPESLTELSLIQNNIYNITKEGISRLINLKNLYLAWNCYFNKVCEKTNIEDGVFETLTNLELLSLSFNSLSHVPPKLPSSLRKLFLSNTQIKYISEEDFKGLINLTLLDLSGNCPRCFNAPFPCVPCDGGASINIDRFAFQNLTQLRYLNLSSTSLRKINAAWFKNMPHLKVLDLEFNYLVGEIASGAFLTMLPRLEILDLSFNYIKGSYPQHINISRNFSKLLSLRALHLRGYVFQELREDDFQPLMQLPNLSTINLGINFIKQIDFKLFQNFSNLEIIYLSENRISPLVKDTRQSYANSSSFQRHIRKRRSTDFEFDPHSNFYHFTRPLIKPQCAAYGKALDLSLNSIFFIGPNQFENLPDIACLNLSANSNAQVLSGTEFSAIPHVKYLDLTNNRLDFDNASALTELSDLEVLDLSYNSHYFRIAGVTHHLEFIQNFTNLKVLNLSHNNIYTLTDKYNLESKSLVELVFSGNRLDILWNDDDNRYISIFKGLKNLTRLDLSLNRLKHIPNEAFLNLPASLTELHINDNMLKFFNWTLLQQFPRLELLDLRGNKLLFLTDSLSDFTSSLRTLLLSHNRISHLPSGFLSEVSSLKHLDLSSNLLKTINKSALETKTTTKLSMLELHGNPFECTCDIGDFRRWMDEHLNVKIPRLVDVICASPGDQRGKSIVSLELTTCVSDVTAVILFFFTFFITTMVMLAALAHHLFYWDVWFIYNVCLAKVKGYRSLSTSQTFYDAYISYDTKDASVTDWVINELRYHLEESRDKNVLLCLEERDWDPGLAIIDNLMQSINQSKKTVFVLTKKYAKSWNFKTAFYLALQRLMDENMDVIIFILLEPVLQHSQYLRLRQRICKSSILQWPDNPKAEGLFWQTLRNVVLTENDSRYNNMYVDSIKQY
# ASSAY OVERVIEW: HEK-TLR8 NF-κB-luciferase reporter, R848 or Motolimod stimulation (potentiation or inhibition)
# Assay type: cell-based
# Set-up: expressed in transfected cells; host or cells: 293XLhTLR8 (HEK293)
# ASSAY CONTEXT: ASO 500 nM; relative to R848 only
Catalogue of TLR8 500 nM (averaged NF-κB-Luciferase level relative to R848 condition, fold increase) values
Returns: the value as a bare number; no unit string appended.

{"columns": ["RESIDUE CODES", "TEST VALUE"],
 "data": [
  ["CTTCGTGGGGTCCTTT (antisense; LNA-modified, pattern not given here) [HPRT LNA-662 V1]", 4.366],
  ["CTGCAGCTTCCTTGTC (antisense; LNA-modified, pattern not given here) [CTNN2B-2136 LNA V1]", 0.936],
  ["AATCCAACAAAGTCTG (antisense; LNA-modified, pattern not given here) [HPRT LNA-692 KL]", 1.900],
  ["CGTATTATAGCCGATT (antisense; LNA-modified, pattern not given here) [NC1 LNA PS 3-10-3]", 0.716],
  ["TGTGATGGCCTCCCAT (antisense; LNA-modified, pattern not given here) [HPRT LNA-334 V1]", 1.596],
  ["CCAACACTTCGTGGGG (antisense; LNA-modified, pattern not given here) [HPRT LNA-668 V1]", 0.835]
]}

# ---- query sequence ----
Please give the documented TLR8 500 nM (averaged NF-κB-Luciferase level relative to R848 condition, fold increase) of TGACAAAGATTCACTG (antisense; LNA-modified, pattern not given here) [HPRT LNA-1353 KL]
1.756

====

Listed here: items and their measured TLR7 100 nM (averaged NF-κB-Luciferase level relative to R848 condition).
# MEASUREMENT TARGET: human TLR7 (Homo sapiens, UniProt Q9NYK1)
# Construct: HA; host or cells: 293XL-hTLR7-HA (HEK293)
# Sequence (Q9NYK1 27-1049): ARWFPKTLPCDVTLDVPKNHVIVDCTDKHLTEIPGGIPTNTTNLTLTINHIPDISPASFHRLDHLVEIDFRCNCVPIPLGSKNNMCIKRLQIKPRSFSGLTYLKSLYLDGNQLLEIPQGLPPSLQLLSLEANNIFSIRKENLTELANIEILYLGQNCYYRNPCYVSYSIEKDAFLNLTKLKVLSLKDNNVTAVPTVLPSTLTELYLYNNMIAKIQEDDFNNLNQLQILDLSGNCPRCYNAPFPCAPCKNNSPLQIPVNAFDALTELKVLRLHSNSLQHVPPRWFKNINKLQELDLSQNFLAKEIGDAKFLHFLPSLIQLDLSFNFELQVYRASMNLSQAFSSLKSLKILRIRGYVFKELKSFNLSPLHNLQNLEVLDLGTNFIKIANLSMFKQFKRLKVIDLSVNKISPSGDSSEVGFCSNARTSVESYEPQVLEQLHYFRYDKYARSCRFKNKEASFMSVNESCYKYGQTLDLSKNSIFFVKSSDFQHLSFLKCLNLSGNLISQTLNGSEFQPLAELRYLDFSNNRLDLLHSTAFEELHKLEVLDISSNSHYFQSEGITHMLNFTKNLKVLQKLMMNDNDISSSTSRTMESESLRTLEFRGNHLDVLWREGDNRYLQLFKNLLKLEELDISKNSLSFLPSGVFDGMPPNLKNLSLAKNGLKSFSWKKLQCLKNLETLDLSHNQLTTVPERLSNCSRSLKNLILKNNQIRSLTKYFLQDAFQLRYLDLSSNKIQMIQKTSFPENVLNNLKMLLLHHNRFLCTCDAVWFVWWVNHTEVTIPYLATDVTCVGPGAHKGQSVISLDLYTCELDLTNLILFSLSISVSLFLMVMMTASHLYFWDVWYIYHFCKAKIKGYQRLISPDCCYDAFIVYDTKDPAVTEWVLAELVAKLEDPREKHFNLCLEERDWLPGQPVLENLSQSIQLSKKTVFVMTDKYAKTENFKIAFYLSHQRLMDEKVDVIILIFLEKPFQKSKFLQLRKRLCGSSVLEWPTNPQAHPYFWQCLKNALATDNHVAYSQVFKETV
# ASSAY OVERVIEW: HEK-TLR7 NF-κB-luciferase reporter, R848 stimulation
# Assay type: cell-based
# ASSAY CONTEXT: ASO 100 nM; relative to R848 only, given as fraction
// keep it numeric: no unit symbol after the value

For orientation, consider the following solved cases.
{"columns": ["RESIDUE CODES", "MEASUREMENT TARGET", "TEST VALUE"],
 "data": [
  ["TCCTTGCACGTGGCTT (antisense; LNA-modified, pattern not given here) [EGFR-1014 LNA V1]", "human TLR7 (Homo sapiens, UniProt Q9NYK1)", 0.812],
  ["AGATTTCAGAGCAGCT (antisense; LNA-modified, pattern not given here) [EGFR-4885 LNA KL]", "human TLR7 (Homo sapiens, UniProt Q9NYK1)", 0.438],
  ["CCAGCAGGTCAGCAAA (antisense; LNA-modified, pattern not given here) [HPRT LNA-388 KL]", "human TLR7 (Homo sapiens, UniProt Q9NYK1)", 1.101],
  ["GTCCCCTGTTGACTGG (antisense; LNA-modified, pattern not given here) [HPRT LNA-489 KL]", "human TLR7 (Homo sapiens, UniProt Q9NYK1)", 0.557],
  ["AGCTTCGAGGCCCCAG (antisense; LNA-modified, pattern not given here) [MB21D1-616 LNA V1]", "human TLR7 (Homo sapiens, UniProt Q9NYK1)", 0.554],
  ["CCAACACTTCGTGGGG (antisense; LNA-modified, pattern not given here) [HPRT LNA-668 V1]", "human TLR7 (Homo sapiens, UniProt Q9NYK1)", 0.808],
  ["CACTTCGTGGGGTCCT (antisense; LNA-modified, pattern not given here) [HPRT LNA-664 V1]", "human TLR7 (Homo sapiens, UniProt Q9NYK1)", 0.868],
  ["CCTTGCACGTGGCTTC (antisense; LNA-modified, pattern not given here) [EGFR-1013 LNA V1]", "human TLR7 (Homo sapiens, UniProt Q9NYK1)", 0.617],
  ["CGTATTATAGCCGATT (antisense; LNA-modified, pattern not given here) [NC1 LNA PS 3-10-3]", "human TLR7 (Homo sapiens, UniProt Q9NYK1)", 0.754],
  ["GCCATCCACTTGATAG (antisense; LNA-modified, pattern not given here) [EGFR-2874 LNA V1]", "human TLR7 (Homo sapiens, UniProt Q9NYK1)", 0.671]
]}

Determine its reported TLR7 100 nM (averaged NF-κB-Luciferase level relative to R848 condition): CTTCGTGGGGTCCTTT (antisense; LNA-modified, pattern not given here) [HPRT LNA-662 V1]
0.685

Input GTGTCTGGAAGCTTCC (antisense; LNA-modified, pattern not given here) [CTNN2B-809 LNA V1] , output reported TLR7 100 nM (averaged NF-κB-Luciferase level relative to R848 condition).
0.355

Recall and state the measured TLR7 100 nM (averaged NF-κB-Luciferase level relative to R848 condition) for ATCTGGCAGCCCATCA (antisense; LNA-modified, pattern not given here) [CTNN2B-2516 LNA V1] .
0.663

Find the measured TLR7 100 nM (averaged NF-κB-Luciferase level relative to R848 condition) of TGTCTGGAAGCTTCCT (antisense; LNA-modified, pattern not given here) [CTNN2B-808 LNA V1] and report it.
0.495
